- ASSAY_PROTOCOL: Kinetic profiles of administered and generated stereoisomers in brain, CSF and plasma of rats after oral administration
- Type: in vivo, male Sprague-Dawley (SD) rats
- CONDITION_NOTES: male, Sprague-Dawley, po; administered stereoisomer, 20 mg/kg p.o., rat CSF; read-out: AUC0-180 min, CSF (converted)
Listed here are compounds together with their documented AUC(0-t).
Lab book: enter the figure in ng·h/mL, no units written.

# SMILES_CODE, MEASUREMENT_UNIT, AUC(0-t)
data = [
    ("CC[C@H]1CN2CC[C@]3(C(=O)Nc4ccccc43)[C@@H]2C[C@@H]1/C(=C\\OC)C(=O)OC", "ng·h/mL", 12.4),
]

Any idea what AUC(0-t) was measured for CC[C@H]1CN2CC[C@@]3(C(=O)Nc4ccccc43)[C@@H]2C[C@@H]1/C(=C\OC)C(=O)OC ?
3.4

====

- ASSAY_PROTOCOL: Kinetic profiles of administered and generated stereoisomers in brain, CSF and plasma of rats after oral administration
- Type: in vivo, male Sprague-Dawley (SD) rats
- CONDITION_NOTES: male, Sprague-Dawley, po; administered stereoisomer, 20 mg/kg p.o., rat plasma
Listed here are molecules together with their documented Cmax.
Lab book: enter the figure in ng/mL, no units written.

# SMILES_CODE, MEASUREMENT_UNIT, ASSAY_VALUE
measured = [
    ("CC[C@H]1CN2CC[C@@]3(C(=O)Nc4ccccc43)[C@@H]2C[C@@H]1/C(=C\\OC)C(=O)OC", "ng/mL", 31.3),
]

API: the following record is the query input.
Any idea what Cmax was measured for CC[C@H]1CN2CC[C@]3(C(=O)Nc4ccccc43)[C@@H]2C[C@@H]1/C(=C\OC)C(=O)OC ?
191
